Biological target: hIL-18:ectvIL-18BP complex (Homo sapiens, UniProt Q14116)
Construct: Mature human IL-18 was cloned into a modified pET vector containing a C-terminal 6x His tag; 6x His (C); E. coli BL21 (DE3) Rosetta-Gami 2 for MBP-ectvIL-18BP
Sequence (Q14116 37-193): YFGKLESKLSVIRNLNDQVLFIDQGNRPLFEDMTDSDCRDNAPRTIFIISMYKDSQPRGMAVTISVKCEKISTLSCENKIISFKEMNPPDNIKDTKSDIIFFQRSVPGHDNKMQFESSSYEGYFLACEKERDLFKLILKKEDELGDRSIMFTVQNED
Test: biochemical
RESULT TYPE: Ki (nM)
Reply with just the number (in nM).

These solved cases illustrate the format of a correct answer.
>  <CPD SMILES>
CCOC(=O)c1ccc(Nc2sc(C(=O)c3cccc([N+](=O)[O-])c3)c(N)c2C#N)cc1

>  <UNIT OF MEASUREMENT>
nM

>  <Ki>
1600

$$$$
>  <CPD SMILES>
N#Cc1ccc(NC(=O)Nc2ccc(Oc3ccc(NC(=O)Nc4ccc(C#N)cc4)cc3)cc2)cc1

>  <UNIT OF MEASUREMENT>
nM

>  <Ki>
1800

$$$$

Now take the following compound into account.
Input: Given the entry "O=C(Nc1cccc(-c2nc3ccccc3[nH]2)c1)c1ccc(C(=O)Nc2cccc(-c3nc4ccccc4[nH]3)c2)cc1" , report its measured Ki.
Output: 200

* * *

target: hIL-18:ectvIL-18BP complex (Homo sapiens); construct: Mature human IL-18 was cloned into a modified pET vector containing a C-terminal 6x His tag; 6x His (C); E. coli BL21 (DE3) Rosetta-Gami 2 for MBP-ectvIL-18BP; assay: biochemical; details: 5% DMSO; read-out: IC50, inhibition of hIL-18:ectvIL-18BP complex formation
RESULT TYPE: pIC50
pIC50 here is simply -log10 of the concentration when that concentration is written in mol/L.

>  <CPD SMILES>
CCOC(=O)c1ccc(Nc2sc(C(=O)c3cccc([N+](=O)[O-])c3)c(N)c2C#N)cc1

>  <RESULT TYPE>
pIC50

>  <OBSERVED VALUE>
4.36

$$$$

Input: Given the entry "N#Cc1ccc(NC(=O)Nc2ccc(Oc3ccc(NC(=O)Nc4ccc(C#N)cc4)cc3)cc2)cc1" , report its measured pIC50.
Output: 4.28

Input: # iterate: "O=C(Nc1cccc(-c2nc3ccccc3[nH]2)c1)c1ccc(C(=O)Nc2cccc(-c3nc4ccccc4[nH]3)c2)cc1"
Output: 5.22
